Test system: 966289-007-R4-J1-PDC complex spheroid viability
Experiment: Anticancer human tumor 966289-007-R4-J1-PDC patient-derived pancreatic adenocarcinoma cell line growth inhibition [GQUAD]
Conditions: second compound 0.0316 µM; first compound 0.0316 µM; active compounds read low
Entries and their viability, T/C
Enter your answer as a number in %; do not include the unit.

Consider the reported viability, T/C for these molecules:
1) C#Cc1c(F)ccc2cc(O)cc(-c3ncc4c(N5CC6CCC(C5)N6)nc(OCC56CCCN5CC(F)C6)nc4c3F)c12 (configuration not stated) + Cc1cnc(CNC(=O)c2c(=O)c3ccc(N4CCCN(C)CC4)nc3n3c2sc2ccccc23)cn1 ... 114
2) CCc1c2c(nc3ccc(O)cc13)-c1cc3c(c(=O)n1C2)COC(=O)[C@]3(O)CC + Cc1cnc(CNC(=O)c2c(=O)c3ccc(N4CCCN(C)CC4)nc3n3c2sc2ccccc23)cn1 ... 0.4
3) C=CC(=O)N1CCN(c2nc(=O)n(-c3c(C)ccnc3C(C)C)c3nc(-c4c(O)cccc4F)c(F)cc23)C(C)C1 (configuration not stated) + CN(C)c1ccc(Nc2c3ccc(NC(=O)CCN4CCCC4)cc3nc3cc(NC(=O)CCN4CCCC4)ccc23)cc1 ... 107
4) COc1ccc([C@@H](O)c2cc(-c3ncnc4cc(N5CCOCC5)ccc34)c(F)cc2Cl)nn1 + Cc1[nH]c2ccc(F)cc2c1-c1nc2c3cccnc3c3ncccc3c2[nH]1 ... 106
5) O=c1[nH]cc(F)c(=O)[nH]1 + Cc1[nH]c2ccc(F)cc2c1-c1nc2c3cccnc3c3ncccc3c2[nH]1 ... 111

GET /values?readout=viability, T/C&system=966289-007-R4-J1-PDC complex spheroid viability&item= C=CC(=O)N1CCN(c2nc(=O)n(-c3c(C)ccnc3C(C)C)c3nc(-c4c(O)cccc4F)c(F)cc23)C(C)C1 (configuration not stated) + Cc1cnc(CNC(=O)c2c(=O)c3ccc(N4CCCN(C)CC4)nc3n3c2sc2ccccc23)cn1
109

Proceed to O=C(c1cc(Cc2n[nH]c(=O)c3ccccc23)ccc1F)N1CCN(C(=O)C2CC2)CC1 + CN(C)c1ccc(Nc2c3ccc(NC(=O)CCN4CCCC4)cc3nc3cc(NC(=O)CCN4CCCC4)ccc23)cc1
106

---

Test system: 966289-007-R4-J1-PDC complex spheroid viability
Experiment: Anticancer human tumor 966289-007-R4-J1-PDC cell line growth inhibition [GQUAD]; active = viability on the fitted dose curve at most 10% of control; inactive = the rest;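 further: spheroids exposed to the agents for seven days before readout; percent viability relative to DMSO vehicle control wells taken as 100%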
Conditions: second compound 1 µM; first compound 0.1 µM
Outcomes you can answer with include only these: class 1 for active, class 0 for inactive

Below are worked cases with known answers.
1) C=CCn1c(=O)c2cnc(Nc3ccc(N4CCN(C)CC4)cc3)nc2n1-c1cccc(C(C)(C)O)n1 + Cc1cnc(CNC(=O)c2c(=O)c3ccc(N4CCCN(C)CC4)nc3n3c2sc2ccccc23)cn1 ... class 1
2) CC1COCCN1c1cc(C2(S(C)(=N)=O)CC2)nc(-c2ccnc3[nH]ccc23)n1 (stereo unspecified) + CN(C)c1ccc(Nc2c3ccc(NC(=O)CCN4CCCC4)cc3nc3cc(NC(=O)CCN4CCCC4)ccc23)cc1 ... class 0
3) CC1COCCN1c1cc(C2(S(C)(=N)=O)CC2)nc(-c2ccnc3[nH]ccc23)n1 (stereo unspecified) + Cc1[nH]c2ccc(F)cc2c1-c1nc2c3cccnc3c3ncccc3c2[nH]1 ... class 0
4) O=C(NO)c1cnc(N2CCN(S(=O)(=O)c3ccc4ccccc4c3)CC2)nc1 + Cc1[nH]c2ccc(F)cc2c1-c1nc2c3cccnc3c3ncccc3c2[nH]1 ... class 0
5) COc1cc(C2c3cc4c(cc3C(OC3OC5COC(C)OC5C(O)C3O)C3COC(=O)C23)OCO4)cc(OC)c1O (stereo unspecified) + Cc1[nH]c2ccc(F)cc2c1-c1nc2c3cccnc3c3ncccc3c2[nH]1 ... class 0
6) O=C(c1cc(Cc2n[nH]c(=O)c3ccccc23)ccc1F)N1CCN(C(=O)C2CC2)CC1 + Cc1[nH]c2ccc(F)cc2c1-c1nc2c3cccnc3c3ncccc3c2[nH]1 ... class 0
7) COc1cccc2c1C(=O)c1c(O)c3c(c(O)c1C2=O)CC(O)(C(=O)CO)CC3OC1CC(N)C(O)C(C)O1 (stereo unspecified) + Cc1cnc(CNC(=O)c2c(=O)c3ccc(N4CCCN(C)CC4)nc3n3c2sc2ccccc23)cn1 ... class 1
8) O=C(NO)c1cnc(N2CCN(S(=O)(=O)c3ccc4ccccc4c3)CC2)nc1 + CN(C)c1ccc(Nc2c3ccc(NC(=O)CCN4CCCC4)cc3nc3cc(NC(=O)CCN4CCCC4)ccc23)cc1 ... class 0
9) CC1COCCN1c1cc(-c2ccnn2C)c2ccnc(-c3ccn[nH]3)c2n1 (stereo unspecified) + CN(C)c1ccc(Nc2c3ccc(NC(=O)CCN4CCCC4)cc3nc3cc(NC(=O)CCN4CCCC4)ccc23)cc1 ... class 0
10) Nc1ccn(C2OC(CO)C(O)C2(F)F)c(=O)n1 (stereo unspecified) + CN(C)c1ccc(Nc2c3ccc(NC(=O)CCN4CCCC4)cc3nc3cc(NC(=O)CCN4CCCC4)ccc23)cc1 ... class 1

For the next question, use this compound.
Test call for this compound, please: CC(C)n1c(=O)n(C)c2cnc3cc(F)c(-c4ccc(OCCCN5CCCCC5)nc4)cc3c21 + Cc1[nH]c2ccc(F)cc2c1-c1nc2c3cccnc3c3ncccc3c2[nH]1
class 0
